Provenance of the data: patent US20120251547A1

biological target: T1, huIL-17RA-FLAG-polyHis (human, UniProt Q96F46 33-320); assay: binning; IL-17RA held by bead mAb H
T1 construct: also called IL-17RA-FLAG-pHis; wild-type IL-17RA
Recorded measurements of normalized MFI, one per entry
Response field accepts a number only; no unit should be typed.

The cases that follow already have their normalized MFI on record.
AMH11/AML11 (antibody, IgG2, V domains shown, human mAb from IgG2 XenoMouse mice; also called AM-11; antibody A) VH: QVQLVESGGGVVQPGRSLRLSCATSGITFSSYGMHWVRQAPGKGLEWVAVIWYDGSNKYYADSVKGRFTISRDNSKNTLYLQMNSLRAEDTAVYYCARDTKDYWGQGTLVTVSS VL: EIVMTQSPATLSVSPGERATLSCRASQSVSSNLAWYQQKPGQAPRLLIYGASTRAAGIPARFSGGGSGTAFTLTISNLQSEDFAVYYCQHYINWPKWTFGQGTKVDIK: 8640
AMH8/AML8 (antibody, IgG2, V domains shown, human mAb from IgG2 XenoMouse mice; also called AM-8; antibody C) VH: QVQLVQSGAEVKKPGASVKVSCKASGNTFTGYGISWVRQAPGQGLEWMGWISAYNGNTNYAQNLQGRVTMTTDTSTSTAYMELRSLRSDDTAVYYCARRDYDILTGYYNGFDPWGQGTLVTVSS VL: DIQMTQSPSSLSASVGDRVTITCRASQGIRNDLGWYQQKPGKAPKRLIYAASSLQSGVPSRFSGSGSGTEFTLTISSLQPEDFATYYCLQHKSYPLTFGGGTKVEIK: 2950
AMH12/AML12 (antibody, IgG2, V domains shown, human mAb from IgG2 XenoMouse mice; also called AM-12; antibody M) VH: QVQLVQSGAEVKKPGASVKVSCKASGYTLTSYGISWVRQAPGQGLEWMGWISTYKGNTNYAQKLQGRVTMTTDTSTSTAYMELRSLRSDDTAVYYCARKQLVFDYWGQGTLVTVSS VL: EIVMTQSPATLSVSPGERATLSCRASQSISSSLAWYQQKPGQAPRLLIYGASTRATGIPARFSGSGSGTEFTLTISSLQSENFAVYYCQQYDNWPLTFGGGTKVEIK: 73

Next binder, please.
Short answer for AMH20/AML20 (antibody, IgG2, V domains shown, human mAb from IgG2 XenoMouse mice; also called AM-20; antibody R) VH: EVQLVESGGGLVQPGGSLRLSCAASGFTFSSYSMNWVRQAPGKGLEWVSFISARSSTIYYADSVKGRFTISRDNAKNSLYLQMNSLRDEDTAVYYCARPKVGGGMDVWGQGTTVTVSS VL: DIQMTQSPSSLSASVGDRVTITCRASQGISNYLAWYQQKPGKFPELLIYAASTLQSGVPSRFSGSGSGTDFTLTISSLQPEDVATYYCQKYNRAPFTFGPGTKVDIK : normalized MFI was 8300
